test system: Echinochloa oryzoides (Ard.) Fritsch.; assay: Preemergence weed control under flooded paddy conditions, ECHORC (Watergrass (Calif.)); assay type: in vivo; conditions: Rate 0.0320 kg/ha; preemergence weeds, flooded paddy; rated three to four weeks after treatment; note: meaning of each grade not given here
measured-property: herbicidal effect rating, ECHORC
// print number alone

COC(=O)C(C)Oc1cccc(-c2nsc3ccc(-n4c(=O)cc(C(F)(F)F)n(C)c4=O)cc23)c1 (stereo not shown)	7.7

Kindly review the next compound as well.
Form: compound = COC(=O)C(C)Oc1ccc(OC)cc1-c1nsc2ccc(-n3c(=O)cc(C(F)(F)F)n(C)c3=O)cc12 (stereo not shown) ; herbicidal effect rating, ECHORC = 6.0

----------
test system: Oryza sativa, (L.) Tebonnet; assay: Rice tolerance to post-transplant applications under flooded paddy conditions (Example 187), ORYSAT (Rice, Tebonnet); settings: 0.0320 kg/ha, rated three to four weeks after treatment
measured-property: ORYSAT herbicidal rating (rice tolerance)
Note: the reply should be a number with no unit written.

For this molecule ( C=CCOC(=O)C(C)(C)c1nsc2ccc(-n3c(=O)cc(C(F)(F)F)n(C)c3=O)cc12 [Example 491] ), measured ORYSAT herbicidal rating (rice tolerance) is 5.0

Entry Cn1c(C(F)(F)F)cc(=O)n(-c2ccc3snc(C(=O)NS(=O)(=O)/C=C/c4ccccc4)c3c2)c1=O [Example 501] , ORYSAT herbicidal rating (rice tolerance) reported as 0.0

Query COC(=O)C(C)(C)c1nsc2ccc(-n3c(=O)cc(C(F)(F)F)n(C)c3=O)cc12 [Example 490] yields ORYSAT herbicidal rating (rice tolerance) of 7.5

// sample CN(C)S(=O)(=O)NC(=O)c1nsc2ccc(-n3c(=O)cc(C(F)(F)F)n(C)c3=O)cc12 [Example 507] , its ORYSAT herbicidal rating (rice tolerance) was 3.0

----------
Measured MOOVA herbicidal rating accompanies every entry in the list below.
test system: Monochoria vaginalis, Presl.; assay: Preemergence weed control under flooded paddy conditions, MOOVA (Monochoria); assay type: in vivo; conditions: 0.0620 kg/ha; preemergence, flooded paddy; rated three to four weeks after treatment

Some compounds with known MOOVA herbicidal rating results, for comparison:
Cn1c(C(F)(F)F)cc(=O)n(-c2ccc3snc(COC(=O)c4cc(Cl)nc(Cl)c4)c3c2)c1=O [Example 474]	3.0
CC(C)N(C(C)C)S(=O)(=O)NC(=O)c1nsc2ccc(-n3c(=O)cc(C(F)(F)F)n(C)c3=O)cc12 [Example 500]	9.0
COc1ccc(CC(=O)OCc2nsc3ccc(-n4c(=O)cc(C(F)(F)F)n(C)c4=O)cc23)cc1OC [Example 502]	6.0

Let us examine a further case.
GET /value?item= Cc1ccccc1CS(=O)(=O)NC(=O)c1nsc2ccc(-n3c(=O)cc(C(F)(F)F)n(C)c3=O)cc12 [Example 465] &field=MOOVA herbicidal rating returns 3.0

----------
Parameter: herbicidal effect rating, ORYSAT (rice tolerance). Scope: all listed entries.
tested on: Oryza sativa, (L.) Tebonnet; assay: Rice tolerance to post-transplant applications under flooded paddy conditions (Example 187), ORYSAT (Rice, Tebonnet); settings: 0.0625 kg/ha, rated three to four weeks after treatment

Here is how some compounds turned out for herbicidal effect rating, ORYSAT (rice tolerance).
COC(=O)COc1noc2ccc(-n3c(=O)cc(C(F)(F)F)n(C)c3=O)cc12	2.0
Cc1ccc(OCC#N)c(-c2nsc3ccc(-n4c(=O)cc(C(F)(F)F)n(C)c4=O)cc23)c1	4.0
COc1ccc(C)cc1-c1nsc2ccc(-n3c(=O)cc(C(F)(F)F)n(C)c3=O)cc12	4.7
COCC(C)OC(=O)COc1ccc(C)cc1-c1nsc2ccc(-n3c(=O)cc(C(F)(F)F)n(C)c3=O)cc12 (racemic)	2.0

Then this compound:
Data point: "CCN(CC)C(=O)COc1ccc(C)cc1-c1nsc2ccc(-n3c(=O)cc(C(F)(F)F)n(C)c3=O)cc12" ; herbicidal effect rating, ORYSAT (rice tolerance) = 0.0

----------
Some compounds, each annotated with its measured herbicidal effect rating, CYPIR.
tested on: Cyperus iria; assay: Preemergence weed control under flooded paddy conditions, CYPIR (Rice Flatsedge); format: in vivo; conditions: Rate 0.2500 kg/ha; preemergence, flooded paddy; rated 3-4 weeks after treatment; note: meaning of each grade not given here
Field format: numeric only.

Take a look at these entries with their results.
Cc1ccc(OC(C)(C)C(=O)OCCCl)c(-c2nsc3ccc(-n4c(=O)cc(C(F)(F)F)n(C)c4=O)cc23)c1	9.0
CON(C)C(=O)/C=C/c1nsc2ccc(-n3c(=O)cc(C(F)(F)F)n(C)c3=O)cc12	6.0
Cc1ccc(OCC(N)=O)c(-c2nsc3ccc(-n4c(=O)cc(C(F)(F)F)n(C)c4=O)cc23)c1	8.0

Could you now consider this next compound?
Briefly, herbicidal effect rating, CYPIR measured for "Cc1ccc(OCC(=O)OCCCCCO[Si](C)(C)C(C)(C)C)c(-c2nsc3ccc(-n4c(=O)cc(C(F)(F)F)n(C)c4=O)cc23)c1" : 9.0

----------
Listing of entries alongside the reported herbicidal effect rating, ORYSAT (rice tolerance).
test system: Oryza sativa, (L.) Tebonnet; test: Rice tolerance to post-transplant applications under flooded paddy conditions (Example 188), ORYSAT (Rice, Tebonnet); conditions: Rate 0.0625 kg/ha, rated three to four weeks after treatment
Field format: numeric only.

Solved cases (5 shown):
COC(=O)C(C)Oc1ccc(C)cc1-c1nsc2ccc(-n3c(=O)cc(C(F)(F)F)n(C)c3=O)cc12 (stereo not shown)	2.0
COC(=O)C(C)Oc1cc(C)c(C)cc1-c1nsc2ccc(-n3c(=O)cc(C(F)(F)F)n(C)c3=O)cc12 (stereo not shown)	2.0
COC(=O)COc1cc(C)c(C)cc1-c1nsc2ccc(-n3c(=O)cc(C(F)(F)F)n(C)c3=O)cc12	4.0
COc1cc(C)ccc1-c1nsc2ccc(-n3c(=O)cc(C(F)(F)F)n(C)c3=O)cc12	7.0
Cc1nsc2ccc(-n3c(=O)cc(C(F)(F)F)n(C)c3=O)cc12	4.0

Looking up "Cn1c(C(F)(F)F)cc(=O)n(-c2ccc3snc(-c4ccccc4)c3c2)c1=O" , I found its herbicidal effect rating, ORYSAT (rice tolerance) recorded as 4.0

# herbicidal effect rating, ORYSAT (rice tolerance) (compound: "COC(=O)COc1ccc(C)cc1-c1nsc2ccc(-n3c(=O)cc(C(F)(F)F)n(C)c3=O)cc12" ) is 2.0

Entry "Cc1cc(O)c(-c2nsc3ccc(-n4c(=O)cc(C(F)(F)F)n(C)c4=O)cc23)cc1C" , herbicidal effect rating, ORYSAT (rice tolerance) reported as 0.0

Value of measured herbicidal effect rating, ORYSAT (rice tolerance) for the entry "COc1ccc(C)cc1-c1nsc2ccc(-n3c(=O)cc(C(F)(F)F)n(C)c3=O)cc12" : 3.0

Field herbicidal effect rating, ORYSAT (rice tolerance) (entry "CCc1ccc(-c2nsc3ccc(-n4c(=O)cc(C(F)(F)F)n(C)c4=O)cc23)cc1" ) reads 2.0

----------
tested on: Oryza sativa, (L.) Tebonnet; experiment: Rice tolerance to post-transplant applications under flooded paddy conditions (Example 188), ORYSAT (Rice, Tebonnet); settings: Rate 0.0620 kg/ha, rated three to four weeks after treatment
measured-property: herbicidal effect rating, ORYSAT (rice tolerance)
Enter a number only.

Example cases with answers are listed next.
C#CCOC(=O)C(C)(C)Oc1ccc(C)cc1-c1nsc2ccc(-n3c(=O)cc(C(F)(F)F)n(C)c3=O)cc12	0.0
CCCCC(=O)c1nsc2ccc(-n3c(=O)cc(C(F)(F)F)n(C)c3=O)cc12	3.0
CCC(C#N)(CC)c1nsc2ccc(-n3c(=O)cc(C(F)(F)F)n(C)c3=O)cc12	6.0

# herbicidal effect rating, ORYSAT (rice tolerance) of "COc1ccc(I)cc1-c1nsc2ccc(-n3c(=O)cc(C(F)(F)F)n(C)c3=O)cc12" = 0.0

For "CC(C)Oc1cccc(-c2nsc3ccc(-n4c(=O)cc(C(F)(F)F)n(C)c4=O)cc23)c1" the compound record lists herbicidal effect rating, ORYSAT (rice tolerance) as 4.0

Reported herbicidal effect rating, ORYSAT (rice tolerance) for "COC(=O)COc1ccc(C)cc1-c1noc2cc(F)c(-n3c(=O)cc(C(F)(F)F)n(C)c3=O)cc12" was 3.0

----------
Catalogue of molecules with associated herbicidal effect rating, SAGPY
test system: Sagittaria pygmaea, L.; assay: Preemergence weed control under flooded paddy conditions, SAGPY (Arrowhead (Pygmaea)); type: in vivo; conditions: 0.1250 kg/ha; preemergence, flooded paddy; rated three to four weeks after treatment; note: meaning of each grade not given here
Returns: the value as a bare number; no unit string appended.

Take a look at these entries with their results.
C=CCOc1ccc(C)cc1-c1nsc2ccc(-n3c(=O)cc(C(F)(F)F)n(C)c3=O)cc12	0.0
CCN(CC)C(=O)COc1ccc(C)cc1-c1nsc2ccc(-n3c(=O)cc(C(F)(F)F)n(C)c3=O)cc12	0.0

Assay Sagittaria pygmaea, L., sample "C=CCOC(=O)COc1ccc(C)cc1-c1nsc2ccc(-n3c(=O)cc(C(F)(F)F)n(C)c3=O)cc12" , herbicidal effect rating, SAGPY read: 2.0

For "COC(=O)COc1noc2ccc(-n3c(=O)cc(C(F)(F)F)n(C)c3=O)cc12" on Sagittaria pygmaea, L., measured herbicidal effect rating, SAGPY was 4.0

# value of herbicidal effect rating, SAGPY, Sagittaria pygmaea, L., item "COCc1nsc2ccc(-n3c(=O)cc(C(F)(F)F)n(C)c3=O)cc12" = 9.0

// returns herbicidal effect rating, SAGPY for "Cc1ccc(OCC(=O)N(C(C)C)C(C)C)c(-c2nsc3ccc(-n4c(=O)cc(C(F)(F)F)n(C)c4=O)cc23)c1" with Sagittaria pygmaea, L.; value = 0.0

Let me check: "CCc1ccc(OC)c(-c2nsc3ccc(-n4c(=O)cc(C(F)(F)F)n(C)c4=O)cc23)c1" , system Sagittaria pygmaea, L., measured herbicidal effect rating, SAGPY is 4.0

Record "CC(=O)OCc1nsc2ccc(-n3c(=O)cc(C(F)(F)F)n(C)c3=O)cc12" ; system Sagittaria pygmaea, L.; herbicidal effect rating, SAGPY = 2.0
